test system: dopamine-β-hydroxylase (Bos taurus)
Construct: from tissue; host or cells: bovine adrenal (gland) preparations
experiment: Dopamine-β-hydroxylase inhibiting activity (DBH) on bovine adrenal (gland) preparations
Format: biochemical
experimental context: 10^-4 mole/liter; read-out: Enzyme inhibiting activity, DBH
# maps each entry to its inhibition at 100 µM

- compound: "COC(=O)CCC(C)=NNc1ccc(Cl)nn1"
  unit label: "%"
  inhibition at 100 µM: 70
- compound: "CC1CCCCC1=NNc1ccc(Cl)nn1 (stereo not drawn)"
  unit label: "%"
  inhibition at 100 µM: 88
- compound: "CCOC(=O)CCC(C)=NNc1ccc(Cl)nn1"
  unit label: "%"
  inhibition at 100 µM: 60
- compound: "CCOC(=O)C1CCCCC1=NNc1ccc(Cl)nn1 (stereo not drawn)"
  unit label: "%"
  inhibition at 100 µM: 70
- compound: "CC(CC(=O)OC(C)(C)C)=NNc1ccc(N2CCOCC2)nn1"
  unit label: "%"
  inhibition at 100 µM: 30
- compound: "CCOC(=O)CC(C)=NNc1ccc(Cl)nn1"
  unit label: "%"
  inhibition at 100 µM: 100
- compound: "CC(CCC(=O)O)=NNc1ccc(C)nn1"
  unit label: "%"
  inhibition at 100 µM: 50
- compound: "CCOC(=O)CC=NNc1ccc(Cl)nn1"
  unit label: "%"
  inhibition at 100 µM: 73
- compound: "CCOC(=O)CC(C)=NNc1cccnn1"
  unit label: "%"
  inhibition at 100 µM: 100
- compound: "CCOC(=O)CCCCC(C)=NNc1ccc(Cl)nn1"
  unit label: "%"
  inhibition at 100 µM: 66
- compound: "O=C(O)C1CCCCC1=NNc1ccc(Cl)nn1 (stereo not drawn)"
  unit label: "%"
  inhibition at 100 µM: 88
- compound: "CCOC(=O)CC(=NNc1ccc(Cl)nn1)c1cccnc1"
  unit label: "%"
  inhibition at 100 µM: 100
- compound: "CC12CCC(CC1=NNc1cccnn1)C2(C)C (stereo not drawn)"
  unit label: "%"
  inhibition at 100 µM: 80
- compound: "CC(CCCC(=O)O)=NNc1ccc(Cl)nn1"
  unit label: "%"
  inhibition at 100 µM: 73
- compound: "COC(=O)CC(C)=NNc1ccc(Cl)nn1"
  unit label: "%"
  inhibition at 100 µM: 100
- compound: "CCCOC(=O)CC(C)=NNc1ccc(Cl)nn1"
  unit label: "%"
  inhibition at 100 µM: 90
- compound: "CC(CC(=O)OC(C)C)=NNc1ccc(Cl)nn1"
  unit label: "%"
  inhibition at 100 µM: 70
- compound: "c1cnnc(NN=C2CCCCC2)c1 [Example 12, Cyclohexylidene-3-pyridazinylhydrazone]"
  unit label: "%"
  inhibition at 100 µM: 84
- compound: "CCCCc1ccc(C(=O)O)nc1 [Fusaric acid, reference compound]"
  unit label: "%"
  inhibition at 100 µM: 100
- compound: "CC(CC(=O)OC(C)(C)C)=NNc1ccc(Cl)nn1"
  unit label: "%"
  inhibition at 100 µM: 70
- compound: "CC(N)(Cc1ccc(O)cc1)C(=O)O (racemic) [D,L-α-methyl-4-hydroxy-phenyl-alanine, reference compound]"
  unit label: "%"
  inhibition at 100 µM: 0

----------
test system: dopamine-β-hydroxylase (Bos taurus, UniProt P15101)
Construct: from tissue; host or cells: bovine adrenal (gland) preparations
Sequence (P15101 whole entry): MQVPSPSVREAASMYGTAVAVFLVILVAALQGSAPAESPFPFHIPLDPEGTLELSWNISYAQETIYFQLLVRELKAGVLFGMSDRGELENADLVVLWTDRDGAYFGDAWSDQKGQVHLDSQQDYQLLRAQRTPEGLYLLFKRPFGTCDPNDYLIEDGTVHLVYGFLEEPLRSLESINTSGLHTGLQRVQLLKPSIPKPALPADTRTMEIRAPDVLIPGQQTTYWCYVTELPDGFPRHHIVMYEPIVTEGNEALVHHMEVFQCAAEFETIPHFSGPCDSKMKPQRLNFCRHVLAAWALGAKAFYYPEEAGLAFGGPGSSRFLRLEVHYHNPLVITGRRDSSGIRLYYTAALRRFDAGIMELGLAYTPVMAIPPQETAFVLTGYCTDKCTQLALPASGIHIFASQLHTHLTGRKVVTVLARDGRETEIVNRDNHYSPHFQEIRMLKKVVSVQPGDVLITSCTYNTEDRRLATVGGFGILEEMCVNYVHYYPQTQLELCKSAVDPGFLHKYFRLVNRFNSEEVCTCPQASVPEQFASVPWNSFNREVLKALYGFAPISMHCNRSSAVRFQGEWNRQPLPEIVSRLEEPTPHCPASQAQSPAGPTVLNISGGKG
experiment: Dopamine-β-hydroxylase inhibiting activity (DBH) on bovine adrenal (gland) preparations
Assay type: biochemical
experimental context: 10^-4 mole/liter; read-out: Enzyme inhibiting activity, DBH
# maps each entry to its inhibition at 100 µM
experimental readout: inhibition at 100 µM (%)

- compound: "CCOC(=O)CC(=NNc1ccc(Cl)nn1)c1ccccc1 [Example 34]"
  experimental readout: "inhibition at 100 µM"
  experimental result: 100
- compound: "COC(=O)CC(=NNc1ccc(Cl)nn1)C(=O)OC [Example 64]"
  experimental readout: "inhibition at 100 µM"
  experimental result: 50
- compound: "O=C(O)C1CCCCC1=NNc1cccnn1 (stereo not shown) [Example 19]"
  experimental readout: "inhibition at 100 µM"
  experimental result: 75
- compound: "CC(=NNc1cccnn1)c1ccccc1 [Example 13]"
  experimental readout: "inhibition at 100 µM"
  experimental result: 90

Values from patent US4259328A
